# test_details: Binding affinity to IPP isomerase (unknown origin) assessed as dissociation constant
# Set-up: species or system Homo sapiens
reported_property: pKd
Reminder that pKd means the negative base-10 logarithm of the concentration expressed in mol/L.

Problem: Recall and state the measured pKd for `NC(N)=NCP(=O)(O)CP(=O)(O)O` .
Solution: 5.92

###

# experimental_target: Isopentenyl-diphosphate Delta-isomerase (Escherichia coli (strain K12), UniProt Q46822)
# Sequence (Q46822 whole entry): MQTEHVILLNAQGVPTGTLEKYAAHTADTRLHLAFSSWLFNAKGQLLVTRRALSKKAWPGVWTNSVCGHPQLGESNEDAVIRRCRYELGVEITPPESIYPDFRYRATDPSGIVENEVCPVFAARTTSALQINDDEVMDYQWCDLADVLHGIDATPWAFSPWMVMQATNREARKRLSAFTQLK
# test_details: Binding affinity to Escherichia coli IPP isomerase assessed as inhibition constant
reported_property: Ki (nM)
Hi! Could you send only the number? It should be in nM, unit omitted.

NC(N)=NCP(=O)(O)CP(=O)(O)O : 120

Problem: # return Ki for `N=C(N)NCCP(=O)(O)CP(=O)(O)O` , test system: Isopentenyl-diphosphate Delta-isomerase (Escherichia coli (strain K12), UniProt Q46822)
Solution: 129

# credit: ChEMBL document CHEMBL5223115
